Just for reference, patent US4605654A is where these values come from.

assay: Solubility in water
Where a name gives a salt, the structure may show the parent alone.
QUANTITY MEASURED: solubility

Query string: May I ask what solubility has been recorded for COc1ccc(COCC2CNCCO2)cc1 (stereo not drawn) [Example 4, oxalate] ?
Result string: 40 mg/mL

Query string: Field request: solubility | item: Clc1ccc(COCC2CNCCO2)cc1Cl (stereo not drawn) [Example 13, maleate]
Result string: 10 mg/mL

Query string: Given Cc1cccc(COCC2CNCCO2)c1 (stereo not drawn) [Example 6, maleate] , state its recorded solubility.
Result string: 30 mg/mL

Query string: Need solubility of c1ccc(COCC2CNCCO2)cc1 (stereo not drawn) [Example 1, maleate] , thanks.
Result string: 100 mg/mL

Query string: Reported solubility for CCOc1ccccc1COCC1CNCCO1 (stereo not drawn) [Example 11, maleate] : what is it?
Result string: 30 mg/mL

Query string: Name the reported solubility value associated with the molecule COc1cccc(COCC2CNCCO2)c1 (stereo not drawn) [Example 3, maleate]
Result string: 10 mg/mL

* * *

experiment: physchem; conditions: water
QUANTITY MEASURED: solubility (mg/mL)
Enter your answer as a number in mg/mL; do not include the unit.

Query string: Which solubility reading was recorded for the compound Nc1cccc(COCC2CNCCO2)c1.O=C(O)CCC(=O)O (centres unmarked) [Example 45] ?
Result string: 120

Query string: // returns reported solubility for input O=C(O)C(=O)O.Oc1ccc(COCC2CNCCO2)cc1 (centres unmarked) [Example 42]
Result string: 200

* * *

assay: Solubility in water
Where a name gives a salt, the structure may show the parent alone.
Label satisfied for high-side solubility (at or above 50 mg/mL) and not satisfied for low-side solubility (below it).

Query string: Dear colleague, could you confirm whether Clc1ccc(COCC2CNCCO2)cc1 (stereo not shown) [Example 10, maleate] has solubility at or above 50 mg/mL?
Result string: satisfied

Query string: Would you say Cc1ccc(COCC2CNCCO2)cc1 (stereo not shown) [Example 7, oxalate] shows solubility at minimum 50 mg/mL?
Result string: not satisfied

Query string: Does c1ccc(COc2ccc(COCC3CNCCO3)cc2)cc1 (stereo not shown) [Example 42b] have a reported solubility of at least 50 mg/mL?
Result string: not satisfied

Query string: Can Clc1ccccc1COCC1CNCCO1 (stereo not shown) [Example 8, maleate] be said to have solubility at or above 50 mg/mL?
Result string: not satisfied

Query string: In plain terms: is recorded solubility at least 50 mg/mL for Nc1ccc(COCC2CNCCO2)cc1 (stereo not shown) [Example 44, succinate] ?
Result string: satisfied

Query string: Dear colleague, could you confirm whether Fc1cccc(Cl)c1COCC1CNCCO1 (stereo not shown) [Example 15, maleate] has solubility at or above 50 mg/mL?
Result string: not satisfied

Query string: Does solubility meet or surpass 50 mg/mL for c1ccc2c(c1)OCC(COCC1CNCCO1)O2 (stereo not shown) [Example 17, maleate] ?
Result string: satisfied

Query string: Reported solubility reaches at least 50 mg/mL for Clc1ccc(COCC2CNCCO2)c(Cl)c1 (stereo not shown) [Example 12, maleate] ?
Result string: not satisfied

Query string: Identify whether the reported solubility of the following molecule is 50 mg/mL or greater: Clc1cccc(COCC2CNCCO2)c1 (stereo not shown) [Example 9, maleate]
Result string: not satisfied

Query string: Check the entry Oc1cccc(COCC2CNCCO2)c1 (stereo not shown) [Example 43, oxalate] : does solubility equal or exceed 50 mg/mL?
Result string: satisfied

* * *

Field: PERCENTAGE ANALGESIA. Provide a value for each of the compounds that follow.
system: nociceptive reactions; assay: Heating-plate test, analgesic activity (WOOLFE and MacDONALD); type: in vivo; conditions: mouse, oral, 100 mg/kg; 30 min; plate 65° C.
Where a name gives a salt, the structure may show the parent alone.
Write the figure, then the unit, nothing else.

Query string: Would you mind telling me what PERCENTAGE ANALGESIA value was observed for Cc1ccccc1COCC1CNCCO1 (centres unmarked) [Example 5, maleate] ?
Result string: 20%

Query string: Param item = CCC(=O)O[C@](Cc1ccccc1)(c1ccccc1)[C@H](C)CN(C)C [Dextropropoxyphene, reference compound] ; retrieve measured PERCENTAGE ANALGESIA.
Result string: 15%

Query string: Need PERCENTAGE ANALGESIA, item Clc1cccc(Cl)c1COCC1CNCCO1 (centres unmarked) [Example 14, maleate]
Result string: 23%

Query string: Field request: PERCENTAGE ANALGESIA | item: CCOc1ccccc1COCC1CNCCO1 (centres unmarked) [Example 11, maleate]
Result string: 16%

Query string: // query PERCENTAGE ANALGESIA value for entry Clc1cccc(COCC2CNCCO2)c1 (centres unmarked) [Example 9, maleate]
Result string: 16%

* * *

experiment: Solubility in water
Counter-ions that a name gives are not always drawn.
Would you mind telling me the reported solubility of each entry?

Query string: solubility lookup needed for COc1ccccc1COCC1CNCCO1 (stereo not drawn) [Example 2, fumarate] , thanks.
Result string: 50 mg/mL

Query string: Query (molecule): Clc1cccc(Cl)c1COCC1CNCCO1 (stereo not drawn) [Example 14, maleate] ; field requested: solubility
Result string: 50 mg/mL

Query string: Which solubility value belongs to CC(OCC1CNCCO1)c1ccccc1 (stereo not drawn) ?
Result string: 50 mg/mL
